Below, each entry is listed alongside its reported ED50.
Test system: apomorphine-induced vomiting
experiment_description: block of apomorphine-induced vomiting in dogs (antiemetic activity)
Assay type: in vivo, beagle dogs
details: Canis lupus familiaris, sc, 1 h, read-out: ED50 (dose which protects 50% of the animals from emesis)
A number alone suffices; assume mg/kg.

Below, each entry is followed by its recorded ED50 result.
O=C(NCCN1CCC2(CC1)C(=O)NCN2c1ccc(F)cc1)c1ccccc1[N+](=O)[O-]    0.12
O=C(NCCN1CCC2(CC1)C(=O)NCN2c1ccccc1)c1ccc(F)cc1[N+](=O)[O-]    0.25
O=C(NCCN1CCC2(CC1)C(=O)NCN2c1ccccc1)c1ccccc1Cl [Compound 3]    0.06
Nc1ccccc1C(=O)NCCN1CCC2(CC1)C(=O)NCN2c1ccc(F)cc1 [Compound 23]    0.008
Cc1ccccc1C(=O)NCCN1CCC2(CC1)C(=O)NCN2c1ccccc1 [Compound 6]    0.1

Req: Need ED50 of O=C(NCCN1CCC2(CC1)C(=O)NCN2c1ccccc1)c1ccccc1F [Compound 16] , thanks.
Resp: 0.25

Req: ED50 for O=C(NCCN1CCC2(CC1)C(=O)NCN2c1ccccc1)c1cccs1 ?
Resp: 0.45

Req: Value lookup for ED50; key = O=C(NCCN1CCC2(CC1)C(=O)NCN2c1ccccc1)c1cccc(Cl)c1
Resp: 0.63

Req: So what does the record say about ED50 for Nc1cc(F)ccc1C(=O)NCCN1CCC(O)(c2ccc(Cl)cc2)CC1 [Compound 40] ?
Resp: 0.7

Req: Could you tell me which ED50 is on file for Cl.Nc1cc(F)ccc1C(=O)NCCN1CCC2(CC1)C(=O)NCN2c1ccc(F)cc1.O [Compound 20] ?
Resp: 0.002

Req: Which ED50 is listed for O=C(NCCN1CCC2(CC1)C(=O)NCN2c1ccc(F)cc1)c1ccccc1Cl [Compound 14] ?
Resp: 0.004

----------
System: apomorphine-induced vomiting
experiment_description: block of apomorphine-induced vomiting in dogs (antiemetic activity)
Assay type: in vivo, beagle dogs
details: Canis lupus familiaris, sc, 1 h, read-out: ED50 (dose which protects 50% of the animals from emesis)
value_type: ED50 (mg/kg)
Use mg/kg as the unit, but write only the number.

Req: Reported ED50 for O=C(NCCN1CCC2(CC1)C(=O)NCN2c1ccc(F)cc1)c1ccccc1O : what is it?
Resp: 0.2

Req: Which value of ED50 has been reported for COc1ccc(C(=O)NCCN2CCC3(CC2)C(=O)NCN3c2ccccc2)cc1 in the records?
Resp: 0.5

Req: What value of ED50 has been reported for the following molecule? O=C(NCCN1CCC2(CC1)C(=O)NCN2c1ccccc1)c1ccccc1
Resp: 0.1

Req: Any idea what its ED50 is? The molecule is O=C(NCCN1CCC2(CC1)C(=O)NCN2c1ccccc1)c1ccc(F)cc1Cl
Resp: 0.015

Req: Looking for the measured ED50 of CC(=O)Nc1cc(F)ccc1C(=O)NCCN1CCC2(CC1)C(=O)NCN2c1ccc(F)cc1 , can you help?
Resp: 0.07

Req: Consider the molecule shown here: O=C(NCCN1CCC2(CC1)C(=O)NCN2c1ccccc1)c1ccc(Cl)cc1 What is its recorded ED50?
Resp: 0.8

Req: Request the reported ED50 associated with Cn1cccc1C(=O)NCCN1CCC2(CC1)C(=O)NCN2c1ccc(F)cc1
Resp: 0.25
